Target: 5'-AMP-activated protein kinase catalytic subunit alpha-2 (Homo sapiens)
Conditions: at 0.1 µM
Description: GSK_PKIS: AMPKA2 (A2B1G1) mean inhibition at 0.1 uM [Nanosyn]
Please go through the items and note down their inhibition.
The figure you give is taken to be in %; do not add the unit.

[in] Provide 5'-AMP-activated protein kinase catalytic subunit alpha-2 (Homo sapiens) inhibition reading for `CCn1c(-c2nonc2N)nc2cnc(Oc3cccc(NC(=O)c4ccc(OCCN5CCOCC5)cc4)c3)cc21` .
[out] 2.76

[in] Specify the recorded inhibition for `O=C1NC(=O)C(c2ccccc2Cl)=C1Nc1cccc(O)c1` , system: 5'-AMP-activated protein kinase catalytic subunit alpha-2 (Homo sapiens).
[out] -0.21

[in] Give inhibition; test system 5'-AMP-activated protein kinase catalytic subunit alpha-2 (Homo sapiens); compound `CN(C)c1cc2c(Nc3ccc4nc(Cc5ccccc5)[nH]c4c3)ncnc2cn1`
[out] 4.92

[in] Would you please give the reported inhibition of CC1=C(C(=O)Nc2ccc3[nH]ncc3c2)C(c2ccc(F)cc2)NC(=O)N1 (stereo not given) with 5'-AMP-activated protein kinase catalytic subunit alpha-2 (Homo sapiens)?
[out] 3.59

[in] Recall the reported inhibition of `Cc1ccc(C(=O)NC2CCCCC2)cc1-c1ccc(C(=O)NCC2CC2)cc1` when tested on 5'-AMP-activated protein kinase catalytic subunit alpha-2 (Homo sapiens).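 Further: mean inhibition measured on the AMPK complex of alpha2, beta1 and gamma1 subunits.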
[out] 3.32

[in] Give measured inhibition for `CC(C)=Cc1cccc2c1/C(=N/Nc1ccc(S(N)(=O)=O)cc1)C(=O)N2` (5'-AMP-activated protein kinase catalytic subunit alpha-2 (Homo sapiens)).
[out] 3.74

[in] Fill: inhibition (5'-AMP-activated protein kinase catalytic subunit alpha-2 (Homo sapiens)) for this compound `CCn1c(-c2nonc2N)nc2c(N3CCCC3)nccc21`
[out] -8

[in] Report value only: inhibition, 5'-AMP-activated protein kinase catalytic subunit alpha-2 (Homo sapiens), `CC(=O)Nc1cccc(C#Cc2cncnc2Nc2ccc(OCc3cccc(F)c3)c(Cl)c2)n1`
[out] -1.09

[in] Give reported inhibition for `CCn1c(-c2nonc2N)nc2c(C#CC(C)(C)O)nc(CN3CCCC3)cc21` (5'-AMP-activated protein kinase catalytic subunit alpha-2 (Homo sapiens))
[out] 2.04

[in] Fill in: inhibition on 5'-AMP-activated protein kinase catalytic subunit alpha-2 (Homo sapiens), entry `CNC(=O)c1cncc(/C=C/c2c(Cl)cccc2Cl)c1`
[out] 6.15

###

So I've got a bunch of compounds here, and I need their inhibition values.
Target: Mitogen-activated protein kinase kinase kinase kinase 2 (Homo sapiens);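 further: values given as mean percent inhibition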
Settings: at 0.1 µM
Record the value in %, omitting the unit from your answer.

[in] // Input: `CCn1c(-c2nonc2N)nc2cnc(Oc3cccc(NC(=O)c4ccc(OCCN5CCOCC5)cc4)c3)cc21` . Output its inhibition only.
[out] 0.13

[in] Could you please provide reported inhibition for `COc1ccc(-c2ccncc2)cc1C(N)=O` ? Thanks!
[out] 0.72

[in] Please report the measured inhibition for CC1=C(C(=O)Nc2ccc3[nH]ncc3c2)C(c2ccc(F)cc2)NC(=O)N1 (configuration not stated)
[out] 1.97

[in] Read off the recorded inhibition for `CC(C)=Cc1cccc2c1/C(=N/Nc1ccc(S(N)(=O)=O)cc1)C(=O)N2`
[out] 1.89

[in] State, in one line, measured inhibition of `COc1cc2c(cc1Nc1nc(N3CCc4ccccc43)c3cc[nH]c3n1)N(C(=O)CN(C)C)CC2`
[out] 0.88

[in] State its inhibition for this compound: `Cc1cccc(-c2n[nH]cc2-c2ccc3ncccc3n2)n1`
[out] 1.72

[in] Output inhibition of CC1=C(C(=O)Nc2ccc3[nH]ncc3c2)C(c2ccc(Cl)c(Cl)c2)CC(=O)N1 (configuration not stated)
[out] -1.16

[in] Query inhibition for `O=C1NC(=O)C(c2ccc(Cl)cc2)=C1Nc1ccc(Cl)c(C(=O)O)c1`
[out] 0.42

[in] Tell us which inhibition value is on record for `O=C1Nc2ccc(C(=O)c3ccco3)cc2C1=Cc1cc(Cl)c(O)c(Cl)c1`
[out] 1.22

[in] For the compound `COc1ccc(COc2ccc(Cc3cnc(N)nc3N)cc2OC)cc1` , give its measured inhibition value.
[out] 3.72

[in] Quickly give me recorded inhibition for `COc1ccccc1Nc1ncc(-c2ccccc2)o1`
[out] -0.05

[in] Complete the entry with inhibition for `Nc1ncnc2occ(-c3ccc(NC(=O)Nc4cc(C(F)(F)F)cc(C(F)(F)F)c4)cc3)c12`
[out] 15.7

[in] Note down inhibition recorded for `CN(C)c1cc2c(Nc3ccc4nc(Cc5ccccc5)[nH]c4c3)ncnc2cn1`
[out] 1.35

[in] Look up inhibition of `N#Cc1c(NC(=O)c2cccc3ccccc23)sc2c1CCCC2` and report it.
[out] 1.92

[in] Give the value of inhibition reported for the following: `CS(=O)(=O)CCNCc1ccc(-c2ccc3ncnc(Nc4ccc(OCc5ccccc5)c(Cl)c4)c3c2)o1`
[out] 3.3

[in] Consider the compound `CCN1CCC(CC(=O)Nc2n[nH]c3nc(-c4cccs4)c(Br)cc23)CC1` and give its recorded inhibition.
[out] 0.32

[in] Please give the documented inhibition of `CCCN1CCC(Oc2cc(Nc3nc(Nc4cccc(F)c4C(N)=O)c4cc[nH]c4n3)c(OC)cc2Cl)CC1`
[out] 1.26

[in] Give the reported inhibition for this compound. `COC(=O)Nc1nc2cc(Oc3ccc(NC(=O)Nc4cccc(C(=O)O)c4)cc3)ccc2[nH]1`
[out] 0.68

[in] Please give measured inhibition of the following entry: `c1cnn2ncc(-c3ccnc(Nc4ccc5c(c4)OCCO5)n3)c2c1`
[out] 13.6

[in] Entry `Fc1cccc(COc2ccc(Nc3ncnc4cc(-c5ccc[nH]5)sc34)cc2Cl)c1` needs its inhibition filled in; supply it.
[out] 0.55

[in] Supply recorded inhibition for `Cc1nnc(-c2ccc(C)c(-c3ccc(C(=O)Nc4cccc(C#N)c4)cc3)c2)o1` here.
[out] -0.38

[in] For `CCCN1CCC=C(c2ccc(Nc3nc(Nc4ccccc4C(N)=O)c4cc[nH]c4n3)c(C)c2)C1` , write its inhibition.
[out] 6.05
